The reported numbers originate from patent US20220324835A1.

Below: a set of entries, each annotated with reported fold induction at 1 µM.
tested on: T-cell; assay: IL-2 secretion from T-cells stimulated with anti-CD3 antibody alone (Biological Example 2); type: cell-based; conditions: 1 μM compound, primary human total T-cells, read-out: IL-2 secretion, Anti-CD3 stimulation, fold change over baseline

Use the examples below as a reference point.
| MOLECULE | fold induction at 1 µM |
| --- | --- |
| Cn1cnnc1CC1(c2cccc(NC(=O)c3cc(CN4CCC5CC54)cc(C4CC4)n3)c2)COC1 (centres unmarked) | > 0.201 |
| C[C@@H](c1cccc(N2Cc3c(cccc3C(F)(F)F)C2=O)c1)C(F)(F)c1nncn1C [Compound 467a] | < 0.05 |
| Cn1cnnc1CC1(c2cccc(N3Cc4c(cc(CN5CCCC(F)(F)CC5)cc4C(F)(F)F)C3=O)c2)COC1 | > 0.201 |
| CN1CC2CCC(C1)N2c1cc2c(c(C(F)(F)F)c1)CN(c1cccc([C@@](C)(F)C(F)(F)c3nncn3C)c1)C2=O | > 0.201 |

Please look at the following molecule next.
Output measured fold induction at 1 µM for this item: `C[C@H](Cc1nncn1C)c1cccc(NC(=O)c2cc3cc(N4CCNCC4)ccc3cn2)c1`
0.101 to 0.15

====

Below: a set of entries, each annotated with reported fold induction at 10 µM.
tested on: primary human NK cells; test: NK cell activation assessed by cytokine secretion (coculture with K562 NucRed target cells); type: cell-based; conditions: K562, NK cells cocultured with K562 NucRed, 1:1 E/T, 10 μM compound, read-out: IFNγ secretion, fold change over baseline

| COMPOUND | REPORTED |
| --- | --- |
| C[C@H](Cc1nncn1C)c1ccnc(NC(=O)c2cccc(C(F)(F)F)n2)c1 [Compound 302] | 2.01 to 5 |
| Cn1cnnc1C(F)(F)[C@](C)(F)c1cccc(N2Cc3c(cc(CN4CC[C@@H](C#N)C4)cc3C(F)(F)F)C2=O)c1 [Compound 455] | > 5 |
| Cn1cnnc1CC1(c2cccc(NC(=O)c3cc(CN4CCC5(CC5)C4)cc(C4CC4)n3)c2)COC1 [Compound 519] | > 5 |
| Cn1cnnc1CC1(c2cccc(NC(=O)c3nc4c(C(F)(F)F)cccc4[nH]3)c2)COC1 [Compound 335] | 2.01 to 5 |

Please look at the following compound next.
Output measured fold induction at 10 µM for this item: COC1CN(Cc2cc3c(c(C(F)(F)F)c2)CN(c2cccc([C@@](C)(F)C(F)(F)c4nncn4C)c2)C3=O)C1 [Compound 452]
> 5

====

System: T-cell
Test: IL-2 secretion from T-cells co-stimulated with anti-CD3 and anti-CD28 antibody (Biological Example 2)
Type: cell-based, human
Conditions: Homo sapiens, T-cell, fold change over baseline; 4 μM Cbl-b inhibitor; primary human total T-cells; read-out: IL-2 secretion Anti-CD3/Anti-CD28 stimulation
From the text: Methods for experimentally determining increased T-cell activation, increased T-cell proliferation, decreased T-cell exhaustion, and/or decreased T-cell tolerance are well known in the art. Modulation of activity of an immune cell, such as a T-cell, a B cell or a NK cell can be measured by determining a baseline value for a parameter of interest (e.g., cytokine secretion). […] A positive response for immune cell activation can then be determined by the obtained reference value. […]
Below: a set of entries, each annotated with reported fold induction at 4 µM.

| COMPOUND | fold induction at 4 µM |
| --- | --- |
| C[C@H](Cc1nncn1C)c1cc(F)cc(N2Cc3c(cccc3C(F)(F)F)C2=O)c1 [Compound 281a] | 2.51 to 5 |
| Cc1cc(C(=O)Nc2cccc(C3(Cc4nncn4C)COC3)c2)nc(C(F)(F)F)n1 | > 7.5 |
| C[C@H](Cc1nncn1C)c1cccc(NC(=O)c2cc(C3(O)COC3)cc(C(F)(F)F)n2)c1 | 5 to 7.5 |

Output measured fold induction at 4 µM for this item: C[C@@H](c1cccc(N2Cc3c(cccc3C(F)(F)F)C2=O)c1)[C@@H](O)c1nncn1C (racemic)
1.01 to 2.5

Output measured fold induction at 4 µM for this item: `C[C@H](Cc1nncn1C)c1cccc(NC(=O)c2[nH]nc3c2CCCC3)c1`
1.01 to 2.5

Output measured fold induction at 4 µM for this item: `Cc1ccc(C(=O)Nc2cc([C@H](C)Sc3nncn3C)ccn2)nc1C1CC1`
5 to 7.5

====

Below: a set of entries, each annotated with reported IC50.
biological target: Cbl-b (Homo sapiens, UniProt Q13191); test: Cbl-b activity assay (Cbl-b inhibition assay), TR-FRET of Cbl-b interaction with UbcH5B-Ub; type: biochemical; settings: assay buffer with 100 mM NaCl, 60 nM Src kinase; read-out: Cbl-b activity IC50
Sequence (Q13191 36-427): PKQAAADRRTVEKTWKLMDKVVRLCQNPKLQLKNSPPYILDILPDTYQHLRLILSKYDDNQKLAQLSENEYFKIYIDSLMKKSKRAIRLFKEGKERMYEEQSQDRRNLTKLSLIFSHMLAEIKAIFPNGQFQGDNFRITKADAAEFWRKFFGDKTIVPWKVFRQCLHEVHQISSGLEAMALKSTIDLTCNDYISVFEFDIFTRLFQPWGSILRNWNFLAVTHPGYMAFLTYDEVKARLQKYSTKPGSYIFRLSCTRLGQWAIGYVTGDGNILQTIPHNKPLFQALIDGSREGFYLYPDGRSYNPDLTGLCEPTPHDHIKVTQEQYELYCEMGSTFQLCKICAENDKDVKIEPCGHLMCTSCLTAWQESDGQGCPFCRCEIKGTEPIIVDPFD

Use the examples below as a reference point.
| MOLECULE | IC50 |
| --- | --- |
| Cc1cnnn1C[C@H](C)c1cccc(NC(=O)c2cccc(C(F)(F)F)n2)c1 [Compound 312b] | 1000 to 3000 nM |
| C[C@H](Sc1nncn1C)c1ccnc(NC(=O)c2cc(C(F)(F)F)c3ccccc3n2)c1 | 3000 to 10000 nM |
| Cc1cc(C(=O)Nc2cccc(C3(Cc4nncn4C)COC3)c2)n2nccc2n1 | 100 to 300 nM |

State, for Cbl-b (Homo sapiens, UniProt Q13191), measured IC50 of the molecule listed here: `C[C@H](c1cc2c(c(C(F)(F)F)c1)CN(c1cccc(C3(C(F)(F)c4nncn4C)COC3)c1)C2=O)N1CC[C@H](F)C1`
< 100 nM

====

Record: pKd reported on Cbl-b (residues 36-427) (Homo sapiens, UniProt Q13191).
Sequence (Q13191 36-427): as above
pKd: −log10 of the molar value.

| COMPOUND | pKd |
| --- | --- |
| Cc1cnnn1C[C@@H](C)c1cccc(NC(=O)c2cccc(C(F)(F)F)n2)c1 [Compound 312a] | 6.00 to 6.52 |
| CC(Sc1nncn1C)c1ccc(F)c(NC(=O)c2cccc(C(F)(F)F)n2)c1 (stereo not shown) | 5.52 to 6.00 |
| C[C@H](Cc1nncn1C)c1cccc(N2Cc3c(ccnc3C3CC3)C2=O)c1 | 6.00 to 6.52 |
| Cc1c[nH]nc1C[C@@H](C)c1cccc(N2Cc3c(cc(C(=O)N4C[C@@H](O)C[C@H]4C)cc3C(F)(F)F)C2=O)c1 | > 7.00 |
| CC(O)c1cc2c(c(C(F)(F)F)c1)CN(c1cccc([C@H](C)Cc3nncn3C)c1)C2=O (stereo partly shown) | > 7.00 |
| C[C@H](Cc1nncn1C)c1cccc(N2Cc3c(Br)cccc3C2=O)c1 | 6.52 to 7.00 |
| C[C@H](Sc1nncn1C)c1cccc(NC(=O)c2cc(C(C)(C)O)c(Cl)cn2)c1 | 5.52 to 6.00 |
| C[C@H](Cc1nncn1C)c1cccc(NC(=O)c2cc(C3CC3)cc(C(F)(F)F)n2)c1 | > 7.00 |

State, for Cbl-b (residues 36-427) (Homo sapiens, UniProt Q13191), measured pKd of the compound listed here: `Cc1cc(C(=O)Nc2cccc([C@H](C)Sc3nncn3C)c2)[nH]c(=O)c1`
< 5.00

State, for Cbl-b (residues 36-427) (Homo sapiens, UniProt Q13191), measured pKd of the compound listed here: `Cn1cnnc1CC1(c2cccc(NC(=O)c3nc4c(C(F)(F)F)cccc4[nH]3)c2)COC1`
> 7.00

====

Below: a set of entries, each annotated with reported IC50.
molecular target: UniProt Q13191; assay: Cbl-b activity assay (Cbl-b inhibition assay), TR-FRET of Cbl-b interaction with UbcH5B-Ub; type: biochemical; details: assay buffer with 100 mM NaCl, 60 nM Src kinase; read-out: Cbl-b activity IC50

Use the examples below as a reference point.
| MOLECULE | IC50 |
| --- | --- |
| CC1CCc2c1n[nH]c2C(=O)Nc1cccc([C@H](C)Cc2nncn2C)c1 (stereo partly drawn) [Compound 323] | 0.1 to 0.3 µM |
| C[C@H](Sc1nncn1C)c1cccc(NC(=O)c2cc(NS(=O)(=O)CCO)ccn2)c1 [Compound 86] | 3 to 10 µM |
| CC(Sc1nncn1C)c1cc(NC[C@H](C)O)nc(N2Cc3c(cccc3C(F)(F)F)C2=O)c1 (stereo partly drawn) [Compound 177] | 3 to 10 µM |
| Cc1ccn(CC(C)c2cccc(NC(=O)c3cccc(C(F)(F)F)n3)c2)n1 (stereo not drawn) [Compound 216] | 3 to 10 µM |
| Cn1cnnc1CC1(c2cccc(N3Cc4c(cc(CN5CC[C@H](F)C5)cc4C4CC4)C3=O)c2)COC1 [Example 554] | < 0.1 µM |

Please look at the following molecule next.
Output measured IC50 for this item: CN1CCN(Cc2cc3c(c(C(F)(F)F)c2)CN(c2cccc(C4(Cc5nncn5C)COC4)c2)C3=O)CC1 [Example 625]
< 0.1 µM
